- Test system: CCRF-CEM
- experiment_notes: NCI60 one-dose screen (10 μM), Leukemia
- Type: cell-based
- condition_set: Homo sapiens, 10 μM, Leukemia, read-out: Growth percent rate
Please enter T where activity at 10 µM is greater than or equal to -60%, and F where it is lower.

Solved entries:
compound | class_name
CC[C@]12C=CCN3CC[C@@]4(c5ccc(OC)cc5N(C)[C@H]4[C@@](O)(C(=O)OC)[C@@H]1OC(=O)CCC(=O)N1CCN(C(c4ccc(F)cc4)c4ccc(F)cc4)CC1)[C@@H]32 [Compound 31] | F
CCC12C=CCN3CCC4(c5cc(NC(=O)CN6CCN(C(=O)c7ccco7)CC6)c(OC)cc5N(C)C4C(O)(C(=O)OC)C1OC(C)=O)C32 (centres unmarked) [Compound 21] | T
CCC12C=CCN3CCC4(c5cc(NC(=O)CN6CCN(C)CC6)c(OC)cc5N(C)C4C(O)(C(=O)OC)C1OC(C)=O)C32 (centres unmarked) [Compound 16] | T
CC[C@]12C=CCN3CC[C@@]4(c5ccc(OC)cc5N(C)[C@H]4[C@@](O)(C(=O)OC)[C@@H]1OC(=O)CCCN1CCN(Cc4ccc(C(F)(F)F)cc4)CC1)[C@@H]32 [Compound 23] | F

## Task Is activity at 10 µM for CCC12C=CCN3CCC4(c5ccc(OC)cc5N(C)C4C(O)(C(=O)OC)C1OC(=O)CCCBr)C32 (centres unmarked) [Compound 14, 17-(O-4-bromobutanoyl)vindoline] at or above -60%?
## Result T

====

- Tested on: MDA-MB-435
- experiment_notes: NCI60 five-dose screen, Melanoma
- Assay type: cell-based
- condition_set: Homo sapiens; MDA-MB-435, Melanoma; five-dose screen; read-out: GI50
For each record, check the reported GI50: if it is below 2 µM write 1, else write -1.

Solved entries:
molecule | class_name
CC[C@]12C=CCN3CC[C@@]4(c5ccc(OC)cc5N(C)[C@H]4[C@@](O)(C(=O)OC)[C@@H]1OC(=O)CCCN1CCN(Cc4ccc(C(F)(F)F)cc4)CC1)[C@@H]32 | 1
CC[C@]12C=CCN3CC[C@@]4(c5ccc(OC)cc5N(C)[C@H]4[C@@](O)(C(=O)OC)[C@@H]1OC(=O)CCC(=O)N1CCN(C(c4ccc(F)cc4)c4ccc(F)cc4)CC1)[C@@H]32 | -1
CC[C@]12C=CCN3CC[C@@]4(c5ccc(OC)cc5N(C)[C@H]4[C@@](O)(C(=O)OC)[C@@H]1OC(=O)CCCN1CCN(c4ccc(C(F)(F)F)cc4)CC1)[C@@H]32 | 1
CC[C@]12C=CCN3CC[C@@]4(c5ccc(OC)cc5N(C)[C@H]4[C@@](O)(C(=O)OC)[C@@H]1OC(=O)CCC(=O)N1CCN(Cc4ccc(C(F)(F)F)cc4)CC1)[C@@H]32 | -1
CC[C@]12C=CCN3CC[C@@]4(c5ccc(OC)cc5N(C)[C@H]4[C@@](O)(C(=O)OC)[C@@H]1OC(=O)CCCN1CCN(Cc4ccc(F)cc4)CC1)[C@@H]32 | -1

## Task GI50 strictly < 2 µM for this molecule? CC[C@]12C=CCN3CC[C@@]4(c5ccc(OC)cc5N(C)[C@H]4[C@@](O)(C(=O)OC)[C@@H]1OC(=O)CCC(=O)N1CCN(c4ccc(C(F)(F)F)cc4)CC1)[C@@H]32
## Result -1

## Task GI50 strictly < 2 µM for this molecule? CCC12C=CCN3CCC4(c5cc(NC(=O)CN6CCN(C(c7ccc(F)cc7)c7ccc(F)cc7)CC6)c(OC)cc5N(C)C4C(O)(C(=O)OC)C1OC(C)=O)C32 (centres unmarked)
## Result -1
